# IC50 listing for each entry below
- Study target: PI3Kα (p110α/p85α) (Homo sapiens, UniProt P42336)
- Sequence (P42336 whole entry, one chain of several): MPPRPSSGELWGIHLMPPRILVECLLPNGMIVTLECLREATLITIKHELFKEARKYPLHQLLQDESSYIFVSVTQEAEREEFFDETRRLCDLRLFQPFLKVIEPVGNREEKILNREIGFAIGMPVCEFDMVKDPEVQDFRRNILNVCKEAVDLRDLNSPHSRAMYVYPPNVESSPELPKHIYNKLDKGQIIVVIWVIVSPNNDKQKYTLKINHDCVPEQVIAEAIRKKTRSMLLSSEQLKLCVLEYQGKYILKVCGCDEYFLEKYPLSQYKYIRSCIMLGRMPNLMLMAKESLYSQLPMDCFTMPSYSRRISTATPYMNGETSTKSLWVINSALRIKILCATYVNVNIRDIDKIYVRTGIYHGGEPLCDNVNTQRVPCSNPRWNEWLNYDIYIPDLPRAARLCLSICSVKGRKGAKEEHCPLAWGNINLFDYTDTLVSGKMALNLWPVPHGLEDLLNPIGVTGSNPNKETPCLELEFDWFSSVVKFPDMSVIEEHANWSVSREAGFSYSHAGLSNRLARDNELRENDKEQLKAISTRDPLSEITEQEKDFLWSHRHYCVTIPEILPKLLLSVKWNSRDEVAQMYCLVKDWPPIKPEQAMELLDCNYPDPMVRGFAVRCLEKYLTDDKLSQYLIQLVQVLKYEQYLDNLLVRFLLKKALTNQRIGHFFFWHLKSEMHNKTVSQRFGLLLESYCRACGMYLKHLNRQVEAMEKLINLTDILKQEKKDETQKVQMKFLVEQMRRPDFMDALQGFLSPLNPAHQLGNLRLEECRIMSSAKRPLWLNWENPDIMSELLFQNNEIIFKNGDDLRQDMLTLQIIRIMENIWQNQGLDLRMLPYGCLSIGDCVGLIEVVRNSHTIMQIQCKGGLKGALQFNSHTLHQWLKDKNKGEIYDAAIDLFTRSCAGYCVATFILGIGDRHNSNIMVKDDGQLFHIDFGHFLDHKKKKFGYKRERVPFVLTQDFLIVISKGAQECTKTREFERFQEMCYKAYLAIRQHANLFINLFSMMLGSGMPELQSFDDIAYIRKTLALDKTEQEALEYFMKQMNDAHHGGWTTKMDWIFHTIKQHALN
- Run description: ADP-Glo Kinase Assay, inhibition of PI3Kα
Experimental endpoint: IC50

[[record]]
molecule = "CC(C)=CCC/C(C)=C/COc1ccc2ccc(=O)oc2c1 [AUR, auraptene]"
experimental_endpoint = "IC50"
test_result = "> 40 µM"

[[record]]
molecule = "COc1ccc(-c2cc(=O)c3c(OC)c(OC)c(OC)c(OC)c3o2)cc1 [TAN, tangeretin]"
experimental_endpoint = "IC50"
test_result = "> 40 µM"

[[record]]
molecule = "O=C1C[C@@H](c2ccc(O)cc2)Oc2cc(O)cc(O)c21 [NAR, naringenin]"
experimental_endpoint = "IC50"
test_result = "> 40 µM"

[[record]]
molecule = "O=c1cc(-c2ccc(O)c(O)c2)oc2cc(O)cc(O)c12 [LUT, luteolin]"
experimental_endpoint = "IC50"
test_result = "2.49 µM"

[[record]]
molecule = "COc1ccc([C@@H]2CC(=O)c3c(O)cc(O)cc3O2)cc1O [HES, hesperetin]"
experimental_endpoint = "IC50"
test_result = "> 40 µM"


====

pIC50 overview
- Study target: PI3Kγ (p120γ) (Homo sapiens)
- Sequence (P48736 whole entry): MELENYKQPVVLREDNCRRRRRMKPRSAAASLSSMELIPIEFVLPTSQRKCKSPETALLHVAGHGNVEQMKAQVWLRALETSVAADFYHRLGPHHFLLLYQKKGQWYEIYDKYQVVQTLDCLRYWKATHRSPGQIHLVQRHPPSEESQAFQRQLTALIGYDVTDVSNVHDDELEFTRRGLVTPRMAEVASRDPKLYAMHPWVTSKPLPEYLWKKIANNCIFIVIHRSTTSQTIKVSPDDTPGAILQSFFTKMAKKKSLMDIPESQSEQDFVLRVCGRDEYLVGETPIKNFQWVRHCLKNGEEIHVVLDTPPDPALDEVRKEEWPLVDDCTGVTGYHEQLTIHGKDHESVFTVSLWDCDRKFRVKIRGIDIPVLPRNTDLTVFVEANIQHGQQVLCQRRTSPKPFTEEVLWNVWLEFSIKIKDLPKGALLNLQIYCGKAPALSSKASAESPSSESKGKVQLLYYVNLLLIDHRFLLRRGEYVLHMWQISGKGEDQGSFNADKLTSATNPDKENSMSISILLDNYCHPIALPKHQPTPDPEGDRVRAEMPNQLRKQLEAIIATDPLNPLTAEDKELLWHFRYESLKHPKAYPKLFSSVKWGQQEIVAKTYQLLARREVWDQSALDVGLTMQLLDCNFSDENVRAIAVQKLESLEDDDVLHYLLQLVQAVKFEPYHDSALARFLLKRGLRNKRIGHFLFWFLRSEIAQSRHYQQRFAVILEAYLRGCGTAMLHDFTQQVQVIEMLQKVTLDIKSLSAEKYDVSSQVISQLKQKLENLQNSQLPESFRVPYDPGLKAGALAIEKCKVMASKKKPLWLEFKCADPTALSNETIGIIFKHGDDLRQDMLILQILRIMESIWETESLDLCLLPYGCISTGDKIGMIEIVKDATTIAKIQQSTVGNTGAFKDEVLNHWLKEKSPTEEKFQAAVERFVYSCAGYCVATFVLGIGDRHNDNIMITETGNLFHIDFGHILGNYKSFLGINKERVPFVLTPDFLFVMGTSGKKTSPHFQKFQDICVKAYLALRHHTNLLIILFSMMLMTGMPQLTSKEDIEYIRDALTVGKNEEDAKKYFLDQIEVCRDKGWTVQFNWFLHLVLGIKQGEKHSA
pIC50: −log10 of the molar value.
Experimental endpoint: pIC50

[[record]]
molecule = "O=c1cc(-c2ccc(O)c(O)c2)oc2cc(O)cc(O)c12"
experimental_endpoint = "pIC50"
relation = "="
test_result = 5.24

[[record]]
molecule = "COc1ccc(-c2cc(=O)c3c(OC)c(OC)c(OC)c(OC)c3o2)cc1"
experimental_endpoint = "pIC50"
relation = "="
test_result = 4.75

[[record]]
molecule = "O=C1C[C@@H](c2ccc(O)cc2)Oc2cc(O)cc(O)c21"
experimental_endpoint = "pIC50"
relation = "<"
test_result = 4.40


====

- Study target: PI3Kβ (p110β/p85α) (Homo sapiens, UniProt P42338)
- Sequence (P42338 whole entry): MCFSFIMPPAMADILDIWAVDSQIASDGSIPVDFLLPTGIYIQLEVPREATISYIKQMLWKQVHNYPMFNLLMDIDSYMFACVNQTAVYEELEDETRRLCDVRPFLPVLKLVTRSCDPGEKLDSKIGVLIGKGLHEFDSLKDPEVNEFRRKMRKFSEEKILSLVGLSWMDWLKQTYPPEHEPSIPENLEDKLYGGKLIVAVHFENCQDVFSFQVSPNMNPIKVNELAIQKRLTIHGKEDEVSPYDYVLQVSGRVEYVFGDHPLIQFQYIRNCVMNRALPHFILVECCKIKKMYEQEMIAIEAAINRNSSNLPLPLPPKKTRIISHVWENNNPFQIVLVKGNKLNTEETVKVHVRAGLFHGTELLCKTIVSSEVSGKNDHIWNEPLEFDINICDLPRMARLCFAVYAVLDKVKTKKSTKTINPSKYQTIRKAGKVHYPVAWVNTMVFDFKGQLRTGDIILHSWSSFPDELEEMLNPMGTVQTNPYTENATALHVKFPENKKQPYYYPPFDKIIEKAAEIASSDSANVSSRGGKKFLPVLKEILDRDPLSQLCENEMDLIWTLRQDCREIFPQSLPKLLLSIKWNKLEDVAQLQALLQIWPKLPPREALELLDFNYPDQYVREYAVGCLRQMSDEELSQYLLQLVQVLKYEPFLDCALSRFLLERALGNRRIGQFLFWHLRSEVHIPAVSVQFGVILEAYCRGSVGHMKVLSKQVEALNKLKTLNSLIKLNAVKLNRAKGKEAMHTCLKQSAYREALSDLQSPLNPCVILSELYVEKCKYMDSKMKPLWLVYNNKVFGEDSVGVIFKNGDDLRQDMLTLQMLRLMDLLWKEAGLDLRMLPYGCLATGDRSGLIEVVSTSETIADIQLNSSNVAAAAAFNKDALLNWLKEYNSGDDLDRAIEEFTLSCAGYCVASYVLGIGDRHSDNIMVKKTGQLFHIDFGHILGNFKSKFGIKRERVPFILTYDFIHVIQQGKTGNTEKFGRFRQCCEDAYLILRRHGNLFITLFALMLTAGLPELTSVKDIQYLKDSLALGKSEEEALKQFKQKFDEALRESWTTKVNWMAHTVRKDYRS
- Sequence (P27986 whole entry partner): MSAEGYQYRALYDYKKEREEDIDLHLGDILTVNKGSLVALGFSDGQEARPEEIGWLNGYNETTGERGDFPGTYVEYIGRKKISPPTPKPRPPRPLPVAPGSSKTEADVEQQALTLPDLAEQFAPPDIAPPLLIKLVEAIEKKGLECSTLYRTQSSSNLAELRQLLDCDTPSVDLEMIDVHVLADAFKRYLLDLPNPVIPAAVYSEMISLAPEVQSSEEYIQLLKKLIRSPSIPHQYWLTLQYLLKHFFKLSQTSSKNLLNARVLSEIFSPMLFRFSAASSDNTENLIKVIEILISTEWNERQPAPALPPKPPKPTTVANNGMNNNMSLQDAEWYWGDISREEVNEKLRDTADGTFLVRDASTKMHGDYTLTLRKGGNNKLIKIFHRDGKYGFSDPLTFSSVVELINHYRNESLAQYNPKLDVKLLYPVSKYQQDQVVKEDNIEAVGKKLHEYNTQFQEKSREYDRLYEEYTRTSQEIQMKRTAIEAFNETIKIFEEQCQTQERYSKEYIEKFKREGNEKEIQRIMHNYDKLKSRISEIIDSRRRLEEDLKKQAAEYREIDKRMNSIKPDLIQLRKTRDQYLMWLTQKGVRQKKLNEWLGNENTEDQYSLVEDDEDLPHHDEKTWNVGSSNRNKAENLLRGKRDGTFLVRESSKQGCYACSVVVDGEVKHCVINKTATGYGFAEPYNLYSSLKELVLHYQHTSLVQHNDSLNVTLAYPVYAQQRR
- Run description: ADP-Glo Kinase Assay, inhibition of PI3Kβ
Experimental endpoint: IC50

[[record]]
molecule = "COc1ccc(-c2cc(=O)c3c(OC)c(OC)c(OC)c(OC)c3o2)cc1"
experimental_endpoint = "IC50"
test_result = "> 40 µM"

[[record]]
molecule = "COc1ccc([C@@H]2CC(=O)c3c(O)cc(O)cc3O2)cc1O"
experimental_endpoint = "IC50"
test_result = "> 40 µM"

[[record]]
molecule = "O=C1C[C@@H](c2ccc(O)cc2)Oc2cc(O)cc(O)c21"
experimental_endpoint = "IC50"
test_result = "> 40 µM"

[[record]]
molecule = "CC(C)=CCC/C(C)=C/COc1ccc2ccc(=O)oc2c1"
experimental_endpoint = "IC50"
test_result = "> 40 µM"

[[record]]
molecule = "O=c1cc(-c2ccc(O)c(O)c2)oc2cc(O)cc(O)c12"
experimental_endpoint = "IC50"
test_result = "2.95 µM"


====

- Study target: PI3Kδ (p110δ/p85α) (Homo sapiens, UniProt O00329)
- Sequence (O00329 whole entry, one chain of several): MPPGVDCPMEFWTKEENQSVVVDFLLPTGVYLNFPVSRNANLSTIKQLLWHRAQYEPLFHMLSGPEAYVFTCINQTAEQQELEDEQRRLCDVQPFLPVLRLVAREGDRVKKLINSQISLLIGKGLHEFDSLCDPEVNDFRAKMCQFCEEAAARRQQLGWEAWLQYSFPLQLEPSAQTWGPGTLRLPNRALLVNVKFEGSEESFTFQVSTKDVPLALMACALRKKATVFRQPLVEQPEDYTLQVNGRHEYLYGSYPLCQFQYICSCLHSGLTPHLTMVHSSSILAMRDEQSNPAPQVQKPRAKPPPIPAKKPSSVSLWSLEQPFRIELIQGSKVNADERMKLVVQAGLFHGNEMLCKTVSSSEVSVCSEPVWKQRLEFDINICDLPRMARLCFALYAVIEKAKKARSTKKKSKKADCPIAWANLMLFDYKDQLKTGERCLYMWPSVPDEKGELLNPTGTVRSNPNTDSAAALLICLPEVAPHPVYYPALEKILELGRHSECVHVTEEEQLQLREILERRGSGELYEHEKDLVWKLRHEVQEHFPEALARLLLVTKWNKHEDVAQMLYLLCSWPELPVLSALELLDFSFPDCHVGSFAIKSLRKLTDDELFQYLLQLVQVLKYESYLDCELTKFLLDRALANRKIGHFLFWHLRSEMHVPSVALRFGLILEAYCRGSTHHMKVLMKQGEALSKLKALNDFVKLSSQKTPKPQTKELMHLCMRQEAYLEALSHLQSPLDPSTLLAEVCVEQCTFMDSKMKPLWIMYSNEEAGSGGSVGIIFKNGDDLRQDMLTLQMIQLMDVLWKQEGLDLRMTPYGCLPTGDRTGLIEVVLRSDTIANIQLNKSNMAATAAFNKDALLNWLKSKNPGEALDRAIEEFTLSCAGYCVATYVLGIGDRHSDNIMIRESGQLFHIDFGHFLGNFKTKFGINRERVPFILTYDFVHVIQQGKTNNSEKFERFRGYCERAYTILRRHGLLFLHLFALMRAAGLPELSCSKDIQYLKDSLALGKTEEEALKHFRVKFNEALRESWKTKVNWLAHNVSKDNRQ
- Run description: ADP-Glo Kinase Assay, inhibition of PI3Kδ
pIC50: −log10 of the molar value.
# reported pIC50; entries follow
Experimental endpoint: pIC50

[[record]]
molecule = "COc1ccc(-c2cc(=O)c3c(OC)c(OC)c(OC)c(OC)c3o2)cc1"
study_target = "PI3Kδ (p110δ/p85α) (Homo sapiens, UniProt O00329)"
test_result = "< 4.40"

[[record]]
molecule = "CC(C)=CCC/C(C)=C/COc1ccc2ccc(=O)oc2c1"
study_target = "PI3Kδ (p110δ/p85α) (Homo sapiens, UniProt O00329)"
test_result = "< 4.40"

[[record]]
molecule = "COc1ccc([C@@H]2CC(=O)c3c(O)cc(O)cc3O2)cc1O"
study_target = "PI3Kδ (p110δ/p85α) (Homo sapiens, UniProt O00329)"
test_result = "< 4.40"

[[record]]
molecule = "O=c1cc(-c2ccc(O)c(O)c2)oc2cc(O)cc(O)c12"
study_target = "PI3Kδ (p110δ/p85α) (Homo sapiens, UniProt O00329)"
test_result = 5.81

[[record]]
molecule = "O=C1C[C@@H](c2ccc(O)cc2)Oc2cc(O)cc(O)c21"
study_target = "PI3Kδ (p110δ/p85α) (Homo sapiens, UniProt O00329)"
test_result = "< 4.40"

